targetOfAssay: IRAK-4 (Homo sapiens)
Sequence (Q9NWZ3 whole entry): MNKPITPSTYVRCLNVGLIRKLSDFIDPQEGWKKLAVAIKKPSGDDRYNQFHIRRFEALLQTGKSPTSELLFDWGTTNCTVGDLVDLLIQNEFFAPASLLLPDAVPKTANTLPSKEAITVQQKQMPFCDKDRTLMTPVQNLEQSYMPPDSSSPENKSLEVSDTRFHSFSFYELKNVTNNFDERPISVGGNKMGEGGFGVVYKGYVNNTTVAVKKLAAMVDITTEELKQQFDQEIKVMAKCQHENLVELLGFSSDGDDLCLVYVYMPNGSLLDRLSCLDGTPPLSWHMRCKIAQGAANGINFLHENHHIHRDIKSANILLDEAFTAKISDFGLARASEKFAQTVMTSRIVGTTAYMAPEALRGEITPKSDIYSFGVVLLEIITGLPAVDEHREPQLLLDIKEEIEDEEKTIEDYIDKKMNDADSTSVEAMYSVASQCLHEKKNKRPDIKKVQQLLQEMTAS
assayExplanation: IRAK-4 ELISA, PBMC degradation
Format: cell-based
Set-up: endogenous in cells; host or cells: PBMC
settings: treated overnight
// reported DC50 for each item listed

Observe how each entry below is paired with its result.
compound: CC(C)Oc1cc2c(cc1NC(=O)c1cnn3cccnc13)CN(C1CCN(CC3CCN(c4ccc5c(c4)C(=O)N([C@@H]4CCC(=O)NC4=O)C5=O)CC3)CC1)C2=O [Example 47]
targetOfAssay: IRAK-4 (Homo sapiens)
DC50: 1 to 5 nM

compound: CCN(C1CCN(c2ccc3c(c2)C(=O)N([C@@H]2CCC(=O)NC2=O)C3=O)CC1)[C@H]1C[C@H](n2cc3cc(NC(=O)c4cnn5cccnc45)c(OC(C)C)cc3n2)C1 [Example 377]
targetOfAssay: IRAK-4 (Homo sapiens)
DC50: 1 to 5 nM

compound: O=C1CCC(N2C(=O)c3ccc(N4CC[C@H](O[C@H]5CC[C@@H](n6cc7cc(NC(=O)c8cnn9cccnc89)c(OCC8CC8)cc7n6)CC5)C4)cc3C2=O)C(=O)N1 (some centres unmarked) [Example 428]
targetOfAssay: IRAK-4 (Homo sapiens)
DC50: 1 to 5 nM

compound: CC(C)Oc1cc2c(cc1NC(=O)c1cnn3cccnc13)CN(C1CCC(N3CCC(c4ccc5c(c4)C(=O)N(C4CCC(=O)NC4=O)C5=O)CC3)CC1)C2=O (centres unmarked) [Example 25]
targetOfAssay: IRAK-4 (Homo sapiens)
DC50: 1 to 5 nM

Reported DC50, compound O=C1CCC(N2Cc3c(F)cc(N4CC(F)(CN5CCC(n6cc7cc(NC(=O)c8cnn9cccnc89)c(OCC8CC8)cc7n6)CC5)C4)cc3C2=O)C(=O)N1 (centres unmarked) [Example 268] : ____ < 1 nM

---

Tested on: IL6
assayExplanation: R848 stimulated IL6 inhibition assay in PBMC
Type: cell-based
settings: PBMC; human PBMCs, R848 stimulation, compound overnight, IL6 by MSD after 24 hrs; read-out: R848 stim IL6 inhibition IC50
pIC50: −log10 of the molar value.
observationType: pIC50

Observe how each entry below is paired with its result.
compound: O=C1CCC(N2C(=O)c3ccc(N4CC(F)(CN5CCC(n6cc7cc(NC(=O)c8cnn9cccnc89)c(OCC(F)F)cc7n6)CC5)C4)cc3C2=O)C(=O)N1 (stereo not drawn)
targetOfAssay: IL6
endpointValue: 7.30 to 8.00

compound: O=C1CCC(N2Cc3c(ccc(N4CC(F)(CN5CCC(n6cc7cc(NC(=O)c8cnn9cccnc89)c(OCC8CC8)cc7n6)CC5)C4)c3F)C2=O)C(=O)N1 (stereo not drawn)
targetOfAssay: IL6
endpointValue: 7.30 to 8.00

compound: O=C1CCC(N2Cc3ccc(N4CCC(CN5CCC(n6cc7cc(NC(=O)c8cnn9cccnc89)c(OCC8CC8)cc7n6)CC5)CC4)cc3C2=O)C(=O)N1 (stereo not drawn)
targetOfAssay: IL6
endpointValue: > 8.00

compound: O=C1CCC(N2Cc3cc(N4CCC(CN5CCC(n6cc7cc(NC(=O)c8cnn9cccnc89)c(OCC(F)F)cc7n6)CC5)CC4)ccc3C2=O)C(=O)N1 (stereo not drawn)
targetOfAssay: IL6
endpointValue: > 8.00

compound: CN(CCN1CCN(c2ccc3c(c2)C(=O)N(C2CCC(=O)NC2=O)C3=O)CC1)[C@H]1CC[C@H](n2cc3cc(NC(=O)c4cnn5cccnc45)c(OCC4CC4)cc3n2)CC1 (stereo partly drawn)
targetOfAssay: IL6
endpointValue: > 8.00

compound: O=C1CCC(N2Cc3c(cccc3N3CC4(CCCN(C5CCC(n6cc7cc(NC(=O)c8cnn9cccnc89)c(OCC8CC8)cc7n6)CC5)C4)C3)C2=O)C(=O)N1 (stereo not drawn)
targetOfAssay: IL6
endpointValue: 7.30 to 8.00

compound: O=C1CCC(N2Cc3cc(N4CCC(CN5CCC(N6Cc7cc(NC(=O)c8cnn9cccnc89)c(N8CCN(C9CC(F)(F)C9)CC8)cc7C6=O)CC5)CC4)ccc3C2=O)C(=O)N1 (stereo not drawn)
targetOfAssay: IL6
endpointValue: 7.30 to 8.00

compound: CC(C)Oc1cc2c(cc1NC(=O)c1cnn3cccnc13)CN(C1CCN(C(C)(C)C3CN(c4ccc(C(=O)NC5CCC(=O)NC5=O)c(F)c4)C3)CC1)C2=O (stereo not drawn)
targetOfAssay: IL6
endpointValue: > 8.00

Give pIC50 (IL6) of the following compound: CC(C)Oc1cc2c(cc1NC(=O)c1cnn3cccnc13)CN(C1CCN(CC3(F)CN(c4ccc5c(c4F)CN(C4CCC(=O)NC4=O)C5=O)C3)CC1)C2=O (stereo not drawn) 7.00 to 7.30

Lookup CC(C)Oc1cc2c(cc1NC(=O)c1cnn3cccnc13)CN([C@H]1CC[C@H](N(C)CC3(F)CN(c4ccc5c(c4)C(=O)N(C4CCC(=O)NC4=O)C5=O)C3)CC1)C2=O (stereo partly drawn) 7.30 to 8.00

Lookup O=C1CCC(N2Cc3c(ccc(N4CCC(CN5CCC(N6Cc7cc(NC(=O)c8cnn9cccnc89)c(N8CCN(C9CC(F)(F)C9)CC8)cc7C6=O)CC5)CC4)c3F)C2=O)C(=O)N1 (stereo not drawn) 7.30 to 8.00

Lookup CC(C)Oc1nc2c(cc1NC(=O)c1cnn3cccnc13)CN(C1CCN(CC3CCN(c4ccc(C(=O)NC5CCC(=O)NC5=O)c(F)c4)CC3)CC1)C2=O (stereo not drawn) 7.30 to 8.00

Lookup O=C1CCC(NC(=O)c2ccc(N3CCC(CN4CCC(N5Cc6cc(NC(=O)c7cnn8cccnc78)c(OCC(F)F)cc6C5=O)CC4)CC3)cc2F)C(=O)N1 (stereo not drawn) 7.00 to 7.30
